PROCEDURE_SUMMARY: melting temperature; fluorescence melt of hairpins on a sequencing array, two-state fit, raised by 9.35 °C to match UV melts
DETAILS: sodium 0.088 M
PROPERTY_NAME: Tm
Don't forget the unit after the value.

Ask: Consider the sequence GCTGTGCGAAAGCGTAGC (((..((....))..))) and give its measured Tm.
Result: 49.5 °C

Ask: May I ask what Tm has been recorded for GATCTCCGTCGAGATC ((((((....)))))) ?
Result: 51 °C

Ask: Which Tm value is on record for GATCAGTTACTGATC ((((((...)))))) ?
Result: 51.4 °C

----------
PROCEDURE_SUMMARY: melting temperature; fluorescence melt of hairpins on a sequencing array, two-state fit, raised by 9.35 °C to match UV melts
DETAILS: sodium 0.088 M
PROPERTY_NAME: Tm (°C)
Quick reminder: number only, in °C, skip the unit.

Ask: Suppose we examine the sequence GTGGCTGGAAACAGCTAC ((.((((....)))).)) ; what Tm value has been reported?
Result: 53.9

Ask: Using the record for GCGGCCGCGAAAGCGCGC (((..(((....)))))) , report its Tm.
Result: 59.5

Ask: Tell me the measured Tm of GGCCTGCGAAAGCAGCC (((.(((....)))))) , please.
Result: 61.1

Ask: Which Tm is listed for GATCTTAACAAGATC ((((((...)))))) ?
Result: 45.6

Ask: Consider the sequence GATCCTGACCAGGATC ((((((....)))))) and give its measured Tm.
Result: 56.5

Ask: // returns reported Tm for input GGCCGAGGAAACTCGACC ((.((((....)))).))
Result: 51.4

Ask: Would you mind telling me what Tm value was observed for GCGTAGCGAAAGCCACGC ((((.((....)).)))) ?
Result: 60.1

Ask: GET /values?readout=Tm&item= GCTACGCGAAAGCATAGC ((((.((....)).))))
Result: 53.9

Ask: Fill blank: measured Tm of the sequence GCATCATCGAAAGATTGC (((..(((....)))))) is ____.
Result: 30.8

Ask: Fill in the blank: the reported Tm of GGCATCGAAAGATGTGCC ((((((....)))..))) is ____.
Result: 46.4

Ask: Any idea what Tm was measured for GTCAAGCGAAAGCTCGAC (((.(((....))).))) ?
Result: 49.7

Ask: Value lookup for Tm; key = GCGTTTTAACGC ((((....))))
Result: 57.7

Ask: Which Tm value is on record for GTCGCAGGAAACTGTGGC (.(.(((....))).).) ?
Result: 42.8

Ask: Look at this sequence and give its reported Tm. GTCCCCGGAAACAGGGAC (((((.(....).)))))
Result: 48.6

Ask: Please look up its Tm: GAAGCCGCGAAAGCGTTC (((..(((....))))))
Result: 26.3

Ask: # lookup: Tm of GCCCCCGCGAAAGCGGGC (((..(((....))))))
Result: 34.8

Ask: Any idea what Tm was measured for GCCGAGGGAAACTTCGGC (((((.(....).))))) ?
Result: 56.8

Ask: Data request, read-out Tm, for GCGCTCGAAAGAGTCGC ((((((....))).)))
Result: 57.7

Ask: GET /values?readout=Tm&item= GACAGGACGAAAGTCGTC (((..(((....))))))
Result: 42.6

Ask: Returns the measured Tm for the input sequence. Input: GTAATTGGAAACAATTGC (.(((((....))))).)
Result: 39.2

Ask: Quick one: Tm for TTGCGGAAACGCAA (((((....))))) ?
Result: 57.6

Ask: Which Tm value belongs to GATCGTCCTGACGATC ((((((....)))))) ?
Result: 59.4

Ask: Report Tm for GCTAAGACGAAAGTCAGC (((..(((....)))))) please.
Result: 44.3

Ask: What does the data say about its Tm? Entry: GATCTGCTGCAGATC ((((((...))))))
Result: 50.4

Ask: What value of measured Tm is listed for GGTGAGCCGAAAGGCACC (((..(((....)))))) ?
Result: 44.3

Ask: Give the measured Tm of GCGTTCCGAAAGGATCGC (((.(((....))).))) .
Result: 61.6

Ask: Fill blank: measured Tm of the sequence GTAAGCGAAAGCTGTTAC ((((((....)))..))) is ____.
Result: 32.6

Ask: For the sequence GTCGAAGGAAACTTTGAC (((.(((....))).))) , what Tm is on record?
Result: 44.5

Ask: Recorded Tm for GTACATGGAAACATGTGC (.(((((....))))).) , please?
Result: 48.6

Ask: // lookup Tm for GATCGTCGTACGATC ((((((...))))))
Result: 60.4

Ask: Suppose we examine the sequence GATCATACGCATGATC ((((((....)))))) ; what Tm value has been reported?
Result: 48

Ask: Fill blank: measured Tm of the sequence GGGTGAGGAAACTCGCCC (((.(((....))).))) is ____.
Result: 57.4

Ask: I would be grateful if you could share the reported Tm for GCACTGCGAAAGCCGAGC ((.(.((....)).).)) .
Result: 38.8

Ask: Recorded Tm of GTTATTGGAAACAGTAAC ((((.((....)).)))) , please.
Result: 33.4

Ask: Which Tm is reported for this sequence? GAGGGTGGAAACACCCTC (((((((....)))))))
Result: 68.7

Ask: Item under review: GATCTAAACGTAGATC ((((((....)))))) . Reported Tm?
Result: 35.8

Ask: Tm for GTCGAGGGAAACTTCGGC (.(((.(....).))).) ?
Result: 36.4

Ask: Recorded Tm of ACATAGAAATATGT (((((....))))) , please.
Result: 24.6

Recorded values, source the array DNA melting data of Ke et al. (doi:10.1101/2024.01.08.574731).
